Target: CDC34A-ubiquitin complex (Homo sapiens, UniProt P0CG48+P49427)
Sequence (P49427 whole entry, other chains not shown): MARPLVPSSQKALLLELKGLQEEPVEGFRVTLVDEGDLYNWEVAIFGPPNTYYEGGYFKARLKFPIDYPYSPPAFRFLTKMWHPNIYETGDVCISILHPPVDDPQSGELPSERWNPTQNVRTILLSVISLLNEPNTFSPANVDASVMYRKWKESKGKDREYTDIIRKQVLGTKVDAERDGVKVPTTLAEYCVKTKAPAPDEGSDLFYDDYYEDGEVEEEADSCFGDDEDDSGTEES
Test: biochemical
Type: binding
Settings: TR-FRET EC50
measure: pEC50
Give bare numbers, as −log10 of the molar value.

[[record]]
molecule = "CCNC(=O)C1(Cc2ccc(-c3cc(Cl)cc(Cl)c3)cc2)CCN(C(=O)COC)CC1 [2ab]"
measure = "pEC50"
recorded_number = 5.40

[[record]]
molecule = "CCCNC(=O)C1(Cc2ccc(-c3cc(Cl)cc(Cl)c3)cc2)CCN(C(=O)COC)CC1 [2ae]"
measure = "pEC50"
recorded_number = 5.40


**Q:** Request body: readout pEC50, system CDC34A-ubiquitin complex (Homo sapiens, UniProt P0CG48+P49427), query COCC(=O)N1CCC(Cc2ccc(-c3cc(Cl)cc(Cl)c3)cc2)(C(=O)N2CCOCC2)CC1 [2aζ] . Return the value.
**A:** 5.52

====

Target: CDC34A-ubiquitin complex (Homo sapiens, UniProt P0CG48+P49427)
Assay: biochemical
Assay type: binding
measure: activity in the TR-FRET assay (in words)

[[record]]
smi = "COCC(=O)N1CCC(Cc2ccc(-c3cc(Cl)cc(Cl)c3)cc2)(C(N)=O)CC1"
measured_target = "CDC34A-ubiquitin complex (Homo sapiens, UniProt P0CG48+P49427)"
result = "lacked activity"

[[record]]
smi = "Cc1nnc(C2(Cc3ccc(-c4cc(Cl)cc(Cl)c4)cc3)CCN(C(=O)COc3ccccc3)CC2)o1"
measured_target = "CDC34A-ubiquitin complex (Homo sapiens, UniProt P0CG48+P49427)"
result = "abolished activity"

[[record]]
smi = "COCC(=O)N1CCC(Cc2ccc(-c3cc(Cl)cc(Cl)c3)cc2)(C(=O)O)CC1"
measured_target = "CDC34A-ubiquitin complex (Homo sapiens, UniProt P0CG48+P49427)"
result = "lacked activity"

[[record]]
smi = "COCC(=O)N1CCC(Cc2ccc(-c3cc(Cl)cc(Cl)c3)cc2)(c2nnc(C)o2)CC1"
measured_target = "CDC34A-ubiquitin complex (Homo sapiens, UniProt P0CG48+P49427)"
result = "abolished activity"


====

Biological target: CDC34A-ubiquitin complex (Homo sapiens, UniProt P0CG48+P49427)
Assay: biochemical
Format: binding
measure: EC50 (µM)
Answers are plain numbers, in µM.

**Q:** Using the record for COCC(=O)N1CCC(Cc2ccc(-c3cccc(C)c3)cc2)(C(=O)NC(C)C)CC1 , report its EC50.
**A:** 327

====

Molecular target: CDC34A-ubiquitin complex (Homo sapiens, UniProt P0CG48+P49427)
Test: biochemical
Assay type: binding
Conditions: TR-FRET EC50
Strictly below 7 µM in EC50: condition met. Otherwise: condition not met.

The following compounds have reported results that may help.
[[record]]
smi = "CNC(=O)C1(Cc2ccc(-c3cc(Cl)cc(Cl)c3)cc2)CCN(C(=O)COC)CC1"
label_value = "condition not met"

[[record]]
smi = "COCC(=O)N1CCC(Cc2ccc(-c3cc(Cl)cc(Cl)c3)cc2)(C(=O)N2CCCCC2)CC1"
label_value = "condition met"

[[record]]
smi = "COCC(=O)N1CCC(Cc2ccc(-c3cc(Cl)cc(Cl)c3)cc2)(C(=O)NC(C)C)CC1"
label_value = "condition not met"


**Q:** Check if EC50 falls below 7 µM for CCCCCNC(=O)C1(Cc2ccc(-c3cc(Cl)cc(Cl)c3)cc2)CCN(C(=O)COC)CC1 .
**A:** condition not met

**Q:** Another compound: COCC(=O)N1CCC(Cc2ccc(-c3cc(Cl)cc(Cl)c3)cc2)(C(=O)NC(C)(C)C)CC1
**A:** condition not met

**Q:** Same lookup for CCNC(=O)C1(Cc2ccc(-c3cc(Cl)cc(Cl)c3)cc2)CCN(C(=O)CCOC)CC1 , please.
**A:** condition met

**Q:** Repeat for the following compound: CCNC(=O)C1(Cc2ccc(-c3cc(Cl)cc(Cl)c3)cc2)CCN(C(=O)c2ccccc2)CC1
**A:** condition met
